# tested system: T1, RSV-F.mmh (Respiratory Syncytial Virus)
# T1 construct: also called recombinant RSV-F; soluble monomeric RSV-F
# method notes: SPR (Biacore), mAb captured via Fc, soluble RSV-F.mmh injected, 25 C
Recorded measurements of Kd, one per entry
Write down the value, and be sure its unit follows.

Recorded Kd, per entry:
Control I (palivizumab sequence) (antibody, V domains shown, also called Control 1; SYNAGIS) VH: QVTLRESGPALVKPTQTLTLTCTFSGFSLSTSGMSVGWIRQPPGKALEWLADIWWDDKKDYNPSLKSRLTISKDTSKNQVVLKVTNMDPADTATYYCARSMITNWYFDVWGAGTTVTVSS VL: DIQMTQSPSTLSASVGDRVTITCKCQLSVGYMHWYQQKPGKAPKLLIYDTSKLASGVPSRFSGSGSGTEFTLTISSLQPDDFATYYCFQGSGYPFTFGGGTKLEIKR | 38.1 nM
H1H3592P2 (antibody, V domains shown) VH: EVQLVESGGDLVQPGRSLRLSCVASGFTFDDYAMHWVRQAPGKGLEWVSGVSWSGSTVGYADSVKGRFTVSRDNAQKSLYLQMNSLRAEDTALYYCVKDAYKYNYYYYGLDVWGQGTTVTVSS VL: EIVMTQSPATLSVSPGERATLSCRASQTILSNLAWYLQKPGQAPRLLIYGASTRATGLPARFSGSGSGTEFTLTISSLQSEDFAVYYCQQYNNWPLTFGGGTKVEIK | 14.7 nM

Here is the next item to consider.
Can you look up the measured Kd of H1H3607P (antibody, V domains shown) VH: QVQLVESGGGLVKPGGSLRLSCAASGFTFSDYYMTWIRQVPGKGLEWVSYISSTGNNRYYGDSVKGRFAISRDNAKNLLFLQMNSLKAEDTAVYYCARENNWNPYFFYYGMDVWGQGTTVTVSS VL: DIQMTQSPSSVSASVGDRVTITCRASQGISIWLAWYQQKPGKAPKLLISAASTLQSGVPSRFSGSGSGTDFTLTISSLQPEDFATYYCQQANSFPLTFGQGTKVEIK for me?
35 nM
